- test protocol: Pharmacokinetics and oral bioavailability of D11.2 in male SD rats (IV, PO, SQ)
- Assay type: in vivo
- condition notes: rat, in vivo, po, 1 mg/kg, PO 1 mg/kg, individual rats R4, R5, R6
Where a SMILES comes first, the peptide text is derived from it. [ ]: non-standard residue; d: D form. NMeL = CN[C@@H](CC(C)C)C(=O)O; Sar = CNCC(=O)O
readout name: MRT inf (h)
Numbers only, in h.

If you can, please state the reported MRT inf value of CC[C@@H](C)[C@H]1NC(=O)[C@@H]2CCCN2C(=O)[C@@H]([C@H](C)CC)NC(=O)CN(C)C(=O)[C@H](CC(C)C)NC(=O)[C@@H](Cc2ccccc2)NC(=O)[C@H](CC(C)C)N(C)C(=O)[C@H]2CCCN2C(=O)[C@@H](CC(C)C)NC(=O)[C@H](CC(C)C)NC(=O)[C@H]2CCCN2C1=O [Design D11.2] (cyclo(L[Sar][dI]P[dI][dP]L[dL][dP][NMeL][dF])) .
3.38
